Sourced from patent US20250144067A1

test system: NCI-H292 lung cancer cells; experiment: FDA drug screening, complete media vs cholesterol-free media with simvastatin (TABLE 2); type: cell-based, human; details: complete media minus cholesterol-free media + simvastatin (0.04 μM); >0 enhanced anti-cancer activity, about 0 neutral, <0 antagonist
PROPERTY NAME: Difference
Give the value as a plain number.

Using the record for O=C(Nc1ccc(Cl)cc1)Nc1ccc(Cl)c(Cl)c1 , report its Difference. −0.07

Any idea what its Difference is? The compound is Nc1c(CC(=O)O)cccc1C(=O)c1ccccc1 [Amfenac (Sodium Hydrate)] −0.05

What does the record list as Difference for CC(=O)OC(C)C[N+](C)(C)C.[Cl-] (stereo not drawn) [Methacholine (chloride)] ? −0.05

What value of Difference has been reported for the following compound? Nc1cccc2c1CN(C1CCC(=O)NC1=O)C2=O (stereo not drawn) [Lenalidomide] −0.01

Give its Difference value. Item: Cc1c(Cl)c(C)[n+]([O-])c(Cl)c1-c1noc(-c2cc(O)c(O)c([N+](=O)[O-])c2)n1 −0.04

I have this compound here, O=C(O)CC(O)(CC(=O)O)C(=O)O , and I need its recorded Difference. −0.02
